target: human V2 receptor (Homo sapiens); construct: expressed in transfected cells; host or cells: CHO K1 (ATCC) expressing firefly luciferase under a CRE-responsive promoter; test: Cellular in vitro assay for determining vasopressin receptor activity, V2 receptor cell line (CHO, CRE-luciferase); format: cell-based; conditions: CHO cell line transfected with human V2 receptor; [Arg8]-vasopressin at EC50 concentration, 3 hours; read-out: IC50 hV2
Sequence (P30518 whole entry): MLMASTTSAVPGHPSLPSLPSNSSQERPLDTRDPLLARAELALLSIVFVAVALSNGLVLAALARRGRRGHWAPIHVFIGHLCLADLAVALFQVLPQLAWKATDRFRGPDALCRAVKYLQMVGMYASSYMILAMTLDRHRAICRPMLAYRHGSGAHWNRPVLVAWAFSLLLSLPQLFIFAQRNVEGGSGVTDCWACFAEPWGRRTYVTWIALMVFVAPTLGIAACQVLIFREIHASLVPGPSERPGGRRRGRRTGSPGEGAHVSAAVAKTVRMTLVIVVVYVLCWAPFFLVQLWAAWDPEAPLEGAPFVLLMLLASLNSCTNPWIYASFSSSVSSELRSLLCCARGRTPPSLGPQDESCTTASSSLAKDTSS
pIC50: −log10 of the molar value.
ATTRIBUTE_MEASURED: pIC50

O=C(NCc1c(F)cccc1F)c1ccccc1-n1cnc(Cn2nc(-c3ccc(Cl)cc3)n(C[C@H](O)C(F)(F)F)c2=O)n1 | 6.90
Cc1noc(NC(=O)c2ccccc2-n2cnc(Cn3nc(-c4ccc(Cl)cc4)n(C[C@H](O)C(F)(F)F)c3=O)n2)c1C | 6.64
CC(C)(C)NC(=O)c1ccccc1-n1cnc(Cn2nc(-c3ccc(Cl)cc3)n(C[C@H](O)C(F)(F)F)c2=O)n1 | 8.33
CC(C)(N)CNc1ncccc1-n1cnc(Cn2nc(-c3ccc(Cl)cc3)n(C[C@H](O)C(F)(F)F)c2=O)n1 | 6.42
O=C(NC1CC(F)(F)C1)c1cccc(Cl)c1-n1cnc(Cn2nc(-c3ccc(Cl)cc3)n(C[C@H](O)C(F)(F)F)c2=O)n1 | 6.24

1: O=C1CCN(C(=O)c2ccccc2-n2cnc(Cn3nc(-c4ccc(Cl)cc4)n(C[C@H](O)C(F)(F)F)c3=O)n2)CCN1
2: CC1=NN=C(C)C1NC(=O)c1ccccc1-n1cnc(Cn2nc(-c3ccc(Cl)cc3)n(C[C@H](O)C(F)(F)F)c2=O)n1
IN: Out of 1 and 2 , name the one with the higher pIC50. Let me know the label of the one you choose.
OUT: 2
